The reported measurements were obtained from patent US9113629B2.

pest or weed control at 140 g/ha: recorded values
- System: Key Grass and Sedge Weeds as well as Grass Crops
- experiment-summary: Post-emergent Test II herbicidal activity (Table 6)
- Format: in vivo
- test-conditions: post-emergence, 336 h, CYPES: yellow nutsedge (Cyperus esculentus), 140 g ai/ha, read-out: Visual Growth Reduction (%) 14 Days After Application, CYPES

{"columns": ["structure-smiles-string", "parameter", "value-observed"],
 "data": [
  ["C#Cc1ccc(-c2nc(C(=O)O)c(Cl)c(N)c2F)cc1", "pest or weed control at 140 g/ha", "95 to 100%"],
  ["C#Cc1ccc(-c2nc(N)c(OC)c(C(=O)O)n2)c(F)c1", "pest or weed control at 140 g/ha", "0 to 29%"],
  ["COC(=O)c1nc(-c2ccc(Br)c(F)c2F)nc(N)c1OC", "pest or weed control at 140 g/ha", "95 to 100%"],
  ["Nc1cc(-c2ccc(Br)cc2)nc(C(=O)O)c1Cl", "pest or weed control at 140 g/ha", "95 to 100%"],
  ["COC(=O)c1nc(-c2cccc(F)c2F)c(F)c(N)c1Cl", "pest or weed control at 140 g/ha", "0 to 29%"]
]}

Query: Quote pest or weed control at 140 g/ha reported for "COC(=O)c1nc(-c2ccc([N+](=O)[O-])cc2)c(F)c(N)c1Cl" please.
Response: 75 to 84%

Query: Could you please provide reported pest or weed control at 140 g/ha for "COc1c(N)nc(-c2ccc(I)c(F)c2F)nc1C(=O)O" ? Thanks!
Response: 95 to 100%

Query: Name the recorded pest or weed control at 140 g/ha of the compound listed here: "COc1c(N)nc(-c2ccc(Br)cc2F)nc1C(=O)O"
Response: 95 to 100%

Query: Item "Nc1c(F)c(-c2ccc(Cl)c(F)c2)nc(C(=O)O)c1Cl" : provide pest or weed control at 140 g/ha
Response: 85 to 94%

Query: Give the measured pest or weed control at 140 g/ha for "COc1c(N)nc(-c2ccc(Br)cc2)nc1C(=O)O"
Response: 95 to 100%

====

In this section we review reported pest or weed control at 140 g/ha values for a set of compounds.
- System: Key Grass and Sedge Weeds as well as Grass Crops
- experiment-summary: Post-emergent Test II herbicidal activity (Table 6)
- Format: in vivo
- test-conditions: post-emergence, 336 h, TRZSS (wheat, Triticum aestivum), crop, 140 g ai/ha, read-out: Visual Growth Reduction (%) 14 Days After Application, TRZSS

# count of solved cases: 6
{"columns": ["structure-smiles-string", "pest or weed control at 140 g/ha"],
 "data": [
  ["COC(=O)c1nc(-c2ccc(Br)cc2)nc(N)c1OC", "60 to 74%"],
  ["C#Cc1ccc(-c2nc(C(=O)O)c(Cl)c(N)c2F)cc1F", "45 to 59%"],
  ["COC(=O)c1nc(-c2ccc(Br)c(F)c2F)cc(N)c1Cl", "45 to 59%"],
  ["Nc1c(F)c(-c2ccc(Cl)c(F)c2)nc(C(=O)O)c1Cl", "75 to 84%"],
  ["C#Cc1ccc(-c2nc(C(=O)O)c(Cl)c(N)c2F)cc1", "45 to 59%"],
  ["COC(=O)c1nc(-c2ccc(C(F)(F)F)c(F)c2F)nc(N)c1OC", "45 to 59%"]
]}

Query: Tell us which pest or weed control at 140 g/ha value is on record for "COC(=O)c1nc(-c2ccc(C(F)(F)F)c(F)c2)c(F)c(N)c1Cl"
Response: 45 to 59%

Query: Dear colleague, please send me the reported pest or weed control at 140 g/ha for "COC(=O)c1nc(-c2ccc(C(F)F)cc2)c(F)c(N)c1Cl" when you can.
Response: 0 to 29%

Query: Consider the compound "COC(=O)c1nc(-c2ccc(C#N)c(F)c2F)c(F)c(N)c1Cl" and give its recorded pest or weed control at 140 g/ha.
Response: 0 to 29%

Query: Given the compound "C#Cc1ccc(-c2nc(N)c(OC)c(C(=O)OC)n2)c(F)c1F" , write its reported pest or weed control at 140 g/ha.
Response: 0 to 29%

Query: Look up and state reported pest or weed control at 140 g/ha for "Nc1c(F)c(-c2ccc(Br)cc2F)nc(C(=O)O)c1Cl"
Response: 60 to 74%
